Origin of values: patent US20100292255A1

Molecular target: purified human Hsp90
Construct: purified human Hsp90 (Stressgen, SPP-770)
Experiment: Hsp90 binding assay: displacement of BODIPY-labeled geldanamycin measured by fluorescence polarization
Conditions: BODIPY-GM 10 nM, Hsp90 30 nM, overnight at room temperature; read-out: GM displacement from purified Hsp90 measured by FP IC 50
pIC50: −log10 of the molar value.
quantityKind: pIC50

Answered examples (3):
Nc1ncnc2c1nc(Sc1cc3occc3cc1Br)n2CCC1CCN(C=O)CC1 [Example Compound 168] : 7.02
CS(=O)(=O)N1CCCCC1CCn1c(Sc2cc3c(cc2Br)OCCO3)nc2c(N)ncnc21 (stereo not drawn) [compound 10] : 6.80
C[C@H](O)C(=O)N1CCC(CCn2c(Sc3cc4c(cc3Br)CCCC4)nc3c(N)ncnc32)CC1 [Example Compound 163] : 6.69

[1] N#Cc1cc2c(cc1Sc1nc3c(N)ncnc3n1CCC1CCN(C(=O)CO)CC1)OCCO2 [compound 101]
[2] CS(=O)(=O)N1CCCCC1CCn1c(Sc2cc3c(cc2C#N)OCCO3)nc2c(N)ncnc21 (stereo not drawn) [compound 51]
[3] CC(=O)N1CCC(CCn2c(Sc3cc4c(cc3Br)OCCO4)nc3c(N)ncnc32)CC1 [compound 140]
[4] COc1ccc(C#N)c(Sc2nc3c(N)ncnc3n2CCC2CCN(C=O)CC2)c1 [compound 79]
[5] COc1cc(OC)c(Cl)c(Sc2nc3c(N)ncnc3n2CC2CCCN(C(=O)[C@H](C)N)C2)c1 (stereo partly drawn) [compound 123]
query: Given 5 compounds, produce a descending ranking by pIC50. Provide your answer as the labels ordered per the instruction.
result: 3, 1, 2, 4, 5
(3: 7.35, 1: 6.70, 2: 6.43, 4: 6.15, 5: 5.42)
